# pIC50 annotations
# Assay system: recombinant human TRKA (G595R) (Homo sapiens (Human), UniProt P04629, G595R)
# Sequence (P04629 33-796 G595R): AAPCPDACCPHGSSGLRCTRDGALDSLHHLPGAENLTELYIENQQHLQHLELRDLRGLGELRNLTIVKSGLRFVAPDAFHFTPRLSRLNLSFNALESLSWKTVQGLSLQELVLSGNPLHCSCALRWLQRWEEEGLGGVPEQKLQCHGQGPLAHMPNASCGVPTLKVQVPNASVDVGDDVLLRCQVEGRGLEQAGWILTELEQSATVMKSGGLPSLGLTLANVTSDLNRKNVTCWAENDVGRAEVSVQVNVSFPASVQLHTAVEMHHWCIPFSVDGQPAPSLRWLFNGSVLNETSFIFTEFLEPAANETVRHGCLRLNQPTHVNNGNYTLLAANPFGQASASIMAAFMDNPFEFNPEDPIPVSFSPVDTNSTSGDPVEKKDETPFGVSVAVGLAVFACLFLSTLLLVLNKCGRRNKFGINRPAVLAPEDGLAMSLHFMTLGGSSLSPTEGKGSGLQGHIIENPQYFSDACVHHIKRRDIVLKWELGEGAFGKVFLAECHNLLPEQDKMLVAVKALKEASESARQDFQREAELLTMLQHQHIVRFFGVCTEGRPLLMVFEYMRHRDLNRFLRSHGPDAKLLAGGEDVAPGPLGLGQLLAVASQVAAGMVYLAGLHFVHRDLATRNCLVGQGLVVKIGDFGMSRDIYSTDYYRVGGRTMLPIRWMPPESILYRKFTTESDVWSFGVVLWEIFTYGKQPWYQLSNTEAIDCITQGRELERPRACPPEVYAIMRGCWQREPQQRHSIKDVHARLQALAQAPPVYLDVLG
# Measurement notes: In vitro activity test on mutant TRKA (G595R) (HTRF kinEASE TK)
# Stated conditions: 4.5 μM ATP, 30 min, room temperature; read-out: TRKA (G595R) IC 50
pIC50: −log10 of the molar value.

Sample answers from the record:
{"Smiles str": "Fc1ccc(F)c([C@H]2C[C@H](F)CN2c2n[nH]c3ncc(-c4cnn(C5CCOCC5)c4)cc23)c1", "Assay system": "recombinant human TRKA (G595R) (Homo sapiens (Human), UniProt P04629, G595R)", "pIC50": "> 9.00"}
{"Smiles str": "COC(=O)c1cnc2[nH]nc(N3C[C@@H](F)C[C@@H]3c3cc(F)ccc3F)c2c1", "Assay system": "recombinant human TRKA (G595R) (Homo sapiens (Human), UniProt P04629, G595R)", "pIC50": "> 9.00"}
{"Smiles str": "Fc1ccc(F)c([C@H]2C[C@H](F)CN2c2n[nH]c3ncc(-c4cn[nH]c4)cc23)c1", "Assay system": "recombinant human TRKA (G595R) (Homo sapiens (Human), UniProt P04629, G595R)", "pIC50": "> 9.00"}

From here, focus on the item given below.
In plain terms, `Fc1ccc(F)c([C@H]2C[C@H](F)CN2c2n[nH]c3ncc(-c4cnn(CC(F)(F)F)c4)cc23)c1` has a documented pIC50 of > 9.00
